biological target: human mGluR5d (Homo sapiens, UniProt P41594); construct: The cells are kept under Hygromycin B and Zeocin selection; The separate IP3 assay names GHEK cells stably expressing human mGluR5d; assay: FLIPR assay, functional assessment of mGluR5 antagonism (intracellular calcium mobilization); settings: cells expressing human mGluR5d; IC50 determination; read-out: FLIPR hmGluR5d
Sequence (P41594 21-942 isoform P41594-3 limits assumed): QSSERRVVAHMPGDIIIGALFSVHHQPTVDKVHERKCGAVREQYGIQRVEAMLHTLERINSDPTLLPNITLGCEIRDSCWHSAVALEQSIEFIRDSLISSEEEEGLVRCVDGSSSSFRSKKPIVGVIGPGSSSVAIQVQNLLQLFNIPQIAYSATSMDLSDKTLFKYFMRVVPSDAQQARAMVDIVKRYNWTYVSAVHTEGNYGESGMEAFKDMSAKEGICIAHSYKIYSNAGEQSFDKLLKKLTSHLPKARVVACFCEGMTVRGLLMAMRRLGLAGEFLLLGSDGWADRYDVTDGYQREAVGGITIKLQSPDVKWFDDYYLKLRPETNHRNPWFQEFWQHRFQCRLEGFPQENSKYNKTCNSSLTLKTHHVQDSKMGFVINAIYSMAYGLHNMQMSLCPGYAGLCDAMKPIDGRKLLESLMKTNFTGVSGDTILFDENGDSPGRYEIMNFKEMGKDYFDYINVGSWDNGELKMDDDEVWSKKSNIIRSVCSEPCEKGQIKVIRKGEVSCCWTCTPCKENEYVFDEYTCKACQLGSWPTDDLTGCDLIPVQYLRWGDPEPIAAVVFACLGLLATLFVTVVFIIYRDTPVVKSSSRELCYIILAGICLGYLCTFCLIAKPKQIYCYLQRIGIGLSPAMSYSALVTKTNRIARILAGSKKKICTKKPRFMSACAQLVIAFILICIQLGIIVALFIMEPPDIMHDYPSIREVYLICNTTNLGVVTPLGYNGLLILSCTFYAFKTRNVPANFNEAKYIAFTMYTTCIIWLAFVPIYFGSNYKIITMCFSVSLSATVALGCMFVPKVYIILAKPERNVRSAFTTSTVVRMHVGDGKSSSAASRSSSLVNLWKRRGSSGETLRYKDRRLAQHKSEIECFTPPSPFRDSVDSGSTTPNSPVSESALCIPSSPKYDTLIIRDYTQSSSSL
observable: IC50 (µM)

INSERT INTO results (compound, observable, measurement) VALUES
  ('CNC(=O)c1ccc(-c2nnc(N3CCC[C@@H]3c3cc(-c4cccc(Cl)c4)on3)n2C)cc1 [Example 6.2]', 'IC50', 0.016),
  ('Cn1c(-c2ccc(C(N)=O)cc2)nnc1N1CCC[C@@H]1c1cc(-c2cccc(Cl)c2)on1 [Example 6.1]', 'IC50', 0.011);

src = patent US20090111811A1
